# study target: UniProt:Q9NYK1
# Sequence (Q9NYK1 whole entry): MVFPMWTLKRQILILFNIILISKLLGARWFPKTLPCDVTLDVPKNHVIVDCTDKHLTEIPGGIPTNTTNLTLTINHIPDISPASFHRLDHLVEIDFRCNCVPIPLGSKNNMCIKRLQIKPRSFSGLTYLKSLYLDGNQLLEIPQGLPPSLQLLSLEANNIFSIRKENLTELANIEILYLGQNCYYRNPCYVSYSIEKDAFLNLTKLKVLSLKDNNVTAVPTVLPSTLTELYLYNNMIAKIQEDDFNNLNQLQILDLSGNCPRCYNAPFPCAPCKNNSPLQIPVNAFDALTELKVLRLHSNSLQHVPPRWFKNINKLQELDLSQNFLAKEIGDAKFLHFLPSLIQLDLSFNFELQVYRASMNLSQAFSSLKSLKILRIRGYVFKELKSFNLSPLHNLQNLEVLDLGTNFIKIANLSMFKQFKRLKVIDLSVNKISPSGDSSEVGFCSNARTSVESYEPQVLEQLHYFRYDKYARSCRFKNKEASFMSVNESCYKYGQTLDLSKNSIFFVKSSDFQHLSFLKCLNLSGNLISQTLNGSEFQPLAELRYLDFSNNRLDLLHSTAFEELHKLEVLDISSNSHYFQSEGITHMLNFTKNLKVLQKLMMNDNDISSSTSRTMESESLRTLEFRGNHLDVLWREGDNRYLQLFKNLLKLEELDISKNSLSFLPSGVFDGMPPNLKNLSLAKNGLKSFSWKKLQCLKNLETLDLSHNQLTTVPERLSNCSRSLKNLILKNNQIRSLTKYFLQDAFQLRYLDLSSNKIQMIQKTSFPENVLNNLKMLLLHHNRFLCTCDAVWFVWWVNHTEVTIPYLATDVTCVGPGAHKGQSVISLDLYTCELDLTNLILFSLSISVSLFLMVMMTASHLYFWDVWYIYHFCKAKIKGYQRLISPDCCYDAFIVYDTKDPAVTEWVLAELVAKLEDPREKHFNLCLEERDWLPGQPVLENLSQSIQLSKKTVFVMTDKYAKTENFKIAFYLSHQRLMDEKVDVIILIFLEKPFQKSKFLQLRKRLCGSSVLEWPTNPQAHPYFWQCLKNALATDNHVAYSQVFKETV
# assay text: Activation of TLR7 in human PBMCs incubated for overnight duration followed by compound-treated cell supernatant conditioned media transfer to HCV1b transfected human HuH7-luc/neo replicon cells assessed as induction of INFalpha-mediated suppression of virus growth by firefly-luciferase reporter gene assay
Documented LED across a set of molecules
test readout: LED (µM)

[[record]]
record_smiles = "CCCCNc1nc(N)ncc1OCc1nccc2ccccc12"
study_target = "UniProt:Q9NYK1"
test_readout = "LED"
value_comparator = "="
result_value = 0.003

[[record]]
record_smiles = "CCCC[C@@H](CO)Nc1nc(N)ncc1OC"
study_target = "UniProt:Q9NYK1"
test_readout = "LED"
value_comparator = "="
result_value = 0.4

[[record]]
record_smiles = "CCCCNc1nc(N)ncc1OCc1cc2ccccn2n1"
study_target = "UniProt:Q9NYK1"
test_readout = "LED"
value_comparator = "="
result_value = 0.037

[[record]]
record_smiles = "CCCCNc1nc(N)ncc1OCc1ccc2ccccc2n1"
study_target = "UniProt:Q9NYK1"
test_readout = "LED"
value_comparator = "="
result_value = 0.09

[[record]]
record_smiles = "CCCCNc1nc(N)ncc1OCc1cnccn1"
study_target = "UniProt:Q9NYK1"
test_readout = "LED"
value_comparator = "="
result_value = 0.16

[[record]]
record_smiles = "CC[C@H](C)CNc1nc(N)ncc1OC"
study_target = "UniProt:Q9NYK1"
test_readout = "LED"
value_comparator = ">"
result_value = 24

[[record]]
record_smiles = "CCCCNc1nc(N)ncc1OCc1cc(C)nn1C"
study_target = "UniProt:Q9NYK1"
test_readout = "LED"
value_comparator = "="
result_value = 0.39

[[record]]
record_smiles = "CCCCNc1nc(N)ncc1OCc1nccc(OC)c1OC"
study_target = "UniProt:Q9NYK1"
test_readout = "LED"
value_comparator = "="
result_value = 0.022


---

# study target: Toll-like receptor 7 (Homo sapiens)
# assay text: Agonist activity at human TLR7 expressed in HEK293 cells measured after 6 hrs by NF-kappaB luciferase reporter gene assay
# Format: cell-based
test readout: LED (µM)

[[record]]
record_smiles = "C=CCNc1nc(N)ncc1OC"
study_target = "Toll-like receptor 7 (Homo sapiens)"
test_readout = "LED"
value_comparator = ">"
result_value = 25

[[record]]
record_smiles = "COc1cnc(N)nc1NCCC1CC1"
study_target = "Toll-like receptor 7 (Homo sapiens)"
test_readout = "LED"
value_comparator = ">"
result_value = 25

[[record]]
record_smiles = "CCCCNc1nc(N)ncc1OCc1cc2ccccn2n1"
study_target = "Toll-like receptor 7 (Homo sapiens)"
test_readout = "LED"
value_comparator = "="
result_value = 0.21

[[record]]
record_smiles = "CCCCNc1nc(N)ncc1OCc1ccc2ccccc2n1"
study_target = "Toll-like receptor 7 (Homo sapiens)"
test_readout = "LED"
value_comparator = "="
result_value = 0.3

[[record]]
record_smiles = "CCCC[C@@H](CCO)Nc1nc(N)ncc1OC"
study_target = "Toll-like receptor 7 (Homo sapiens)"
test_readout = "LED"
value_comparator = "="
result_value = 1.6

[[record]]
record_smiles = "CCCCNc1nc(N)ncc1OCC"
study_target = "Toll-like receptor 7 (Homo sapiens)"
test_readout = "LED"
value_comparator = "="
result_value = 4.7

[[record]]
record_smiles = "CCC[C@@H](CCO)Nc1nc(N)ncc1OC"
study_target = "Toll-like receptor 7 (Homo sapiens)"
test_readout = "LED"
value_comparator = "="
result_value = 7.3


The measurements presented in this section are drawn from ChEMBL document CHEMBL4428063.
